# study_target: Dipeptidyl peptidase 9 (Homo sapiens)
# Sequence (Q86TI2 whole entry): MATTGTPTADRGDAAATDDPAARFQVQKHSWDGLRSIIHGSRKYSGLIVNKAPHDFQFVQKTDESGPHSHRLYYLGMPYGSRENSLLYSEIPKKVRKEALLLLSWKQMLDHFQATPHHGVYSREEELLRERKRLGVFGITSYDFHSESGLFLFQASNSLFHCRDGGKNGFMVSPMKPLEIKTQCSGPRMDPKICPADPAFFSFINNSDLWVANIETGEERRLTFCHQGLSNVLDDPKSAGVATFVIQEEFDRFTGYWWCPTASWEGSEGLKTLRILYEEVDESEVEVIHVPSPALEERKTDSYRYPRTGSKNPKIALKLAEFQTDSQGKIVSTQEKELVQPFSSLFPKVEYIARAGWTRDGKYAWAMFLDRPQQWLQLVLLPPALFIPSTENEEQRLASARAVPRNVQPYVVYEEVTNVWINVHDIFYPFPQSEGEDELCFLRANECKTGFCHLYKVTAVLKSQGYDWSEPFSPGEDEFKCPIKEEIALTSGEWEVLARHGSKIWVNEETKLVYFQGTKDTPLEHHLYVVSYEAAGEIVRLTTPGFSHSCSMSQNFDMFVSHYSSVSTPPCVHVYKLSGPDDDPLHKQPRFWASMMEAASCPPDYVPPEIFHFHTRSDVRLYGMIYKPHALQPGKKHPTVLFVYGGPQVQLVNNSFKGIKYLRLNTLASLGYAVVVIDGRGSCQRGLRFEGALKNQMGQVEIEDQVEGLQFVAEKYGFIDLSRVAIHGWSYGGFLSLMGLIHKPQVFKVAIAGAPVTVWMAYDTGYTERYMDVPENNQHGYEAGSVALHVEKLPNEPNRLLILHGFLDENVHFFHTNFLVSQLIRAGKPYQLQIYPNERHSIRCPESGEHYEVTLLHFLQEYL
# assay: Inhibition of N-terminal human recombinant DPP9 expressed in Sf9 insect cells using Ala-Pro-paranitroanilide as substrate incubated for 15 mins by […]
pIC50: −log10 of the molar value.
assay_endpoint: pIC50

| smiles_representation | pIC50 |
| --- | --- |
| O=C(NC12CC3CC(CC(NCC(=O)N4Cc5ccccc5C4)(C3)C1)C2)OCC(Cl)(Cl)Cl | 5.96 |

(1) CC(C)(C)C(=O)NC12CC3CC(CC(NCC(=O)N4Cc5ccccc5C4)(C3)C1)C2
(2) O=C(NC12CC3CC(C1)CC(OCc1ccc(F)cc1F)(C3)C2)OC12CC3CC(CC(NCC(=O)N4Cc5ccccc5C4)(C3)C1)C2
(3) O=C(NC12CC3CC(CC(NCC(=O)N4Cc5ccccc5C4)(C3)C1)C2)OCC1c2ccccc2-c2ccccc21
(4) CCC(C)(C)NC(=O)OC12CC3CC(CC(NCC(=O)N4Cc5ccccc5C4)(C3)C1)C2
List items by pIC50 in falling order. Please list each label once, in the requested order.
2, 3, 4, 1

====

# study_target: Prolyl endopeptidase (Homo sapiens, UniProt P48147)
# Sequence (P48147 whole entry): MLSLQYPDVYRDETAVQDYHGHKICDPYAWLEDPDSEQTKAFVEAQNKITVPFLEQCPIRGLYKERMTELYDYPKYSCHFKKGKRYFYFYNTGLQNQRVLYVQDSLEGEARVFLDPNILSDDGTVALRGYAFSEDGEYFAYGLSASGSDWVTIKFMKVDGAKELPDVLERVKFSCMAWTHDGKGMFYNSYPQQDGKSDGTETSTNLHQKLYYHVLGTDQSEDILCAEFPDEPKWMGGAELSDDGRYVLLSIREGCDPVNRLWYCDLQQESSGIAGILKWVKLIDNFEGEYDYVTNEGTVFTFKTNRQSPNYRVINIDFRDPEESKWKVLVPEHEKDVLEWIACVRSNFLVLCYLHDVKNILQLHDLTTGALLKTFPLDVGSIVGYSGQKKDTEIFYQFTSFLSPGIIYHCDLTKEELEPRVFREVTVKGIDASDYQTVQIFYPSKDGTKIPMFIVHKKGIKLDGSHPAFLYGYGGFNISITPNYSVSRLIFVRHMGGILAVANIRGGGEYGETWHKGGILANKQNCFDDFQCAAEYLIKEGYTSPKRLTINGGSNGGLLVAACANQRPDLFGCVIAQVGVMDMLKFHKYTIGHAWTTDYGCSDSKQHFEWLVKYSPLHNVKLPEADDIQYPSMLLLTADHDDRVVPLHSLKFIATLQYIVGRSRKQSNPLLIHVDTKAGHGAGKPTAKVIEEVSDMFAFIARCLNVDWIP
# assay: Inhibition of human recombinant PREP expressed in Escherichia coli BL21(DE3) using N-succinyl-Gly-Pro-AMC as substrate incubated for 15 mins by fluorescence based analysis
assay_endpoint: IC50

Use the examples below as a reference point.
| smiles_representation | observed_result |
| --- | --- |
| N#Cc1cccc(CNC23CC4CC(CC(NCC(=O)N5Cc6ccccc6C5)(C4)C2)C3)c1 | > 10 µM |
| CCC(C)(C)NC(=O)OC12CC3CC(CC(NCC(=O)N4Cc5ccccc5C4)(C3)C1)C2 | > 10 µM |
| O=C(NCCc1ccccc1)OC12CC3CC(CC(NCC(=O)N4Cc5ccccc5C4)(C3)C1)C2 | > 10 µM |
| N#CCCCCNC12CC3CC(C1)CC(NCC(=O)N1Cc4ccccc4C1)(C3)C2 | > 10 µM |

Record summary for "CC(C)(C)C(=O)NC12CC3CC(CC(NCC(=O)N4Cc5ccccc5C4)(C3)C1)C2" : reported IC50 = > 10 µM

====

# study_target: Dipeptidyl peptidase 9 (Homo sapiens)
# assay: Inhibition of N-terminal human recombinant DPP9 expressed in Sf9 insect cells using Ala-Pro-paranitroanilide as substrate incubated for 15 mins by […]
assay_endpoint: IC50 (nM)

| smiles_representation | study_target | IC50 / nM |
| --- | --- | --- |
| CC(C)(C)OC(=O)NC12CC3CC(CC(NCC(=O)N4Cc5ccc(F)cc5C4)(C3)C1)C2 | Dipeptidyl peptidase 9 (Homo sapiens) | 14 |

(a) O=C(NC12CC3CC(CC(O)(C3)C1)C2)OC12CC3CC(CC(NCC(=O)N4Cc5ccccc5C4)(C3)C1)C2
(b) NC12CC3CC(C1)CC(NCC(=O)N1Cc4ccccc4C1)(C3)C2
// compare measured IC50 between a and b ; output the lower one When you have decided, please share the label of that item.
a
(a: 170 nM, b: 910 nM)

(I) CCCCNC(=O)OC12CC3CC(CC(NCC(=O)N4Cc5ccccc5C4)(C3)C1)C2
(II) O=C(NCc1ccccc1)OC12CC3CC(CC(NCC(=O)N4Cc5ccccc5C4)(C3)C1)C2
Endpoint returns the identifier whose IC50 is numerically larger, either I or II . When you have decided, please share the label of that item.
I
(I: 130 nM, II: 70 nM)
